Listed next: entries and their corresponding IC50.
tgt: Lactoylglutathione lyase (Homo sapiens, UniProt Q04760)
Sequence (Q04760 whole entry, the tested form may be a part): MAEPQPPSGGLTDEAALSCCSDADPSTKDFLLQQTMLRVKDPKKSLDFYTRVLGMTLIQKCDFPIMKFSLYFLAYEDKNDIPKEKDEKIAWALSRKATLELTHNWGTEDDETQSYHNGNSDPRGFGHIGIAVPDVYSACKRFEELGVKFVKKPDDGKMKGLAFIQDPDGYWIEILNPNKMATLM
assay.method.text: Inhibition recombinant human N-terminal 6His-tagged GLO1 (2 to 184 residues) expressed in Escherichia coli using MG as substrate preincubated for 15 to 20 mins followed by substrate addition and measured every 1 min for 8 mins

Incoming: Request - read-out IC50 | tested on Lactoylglutathione lyase (Homo sapiens, UniProt Q04760) | compound `CS(=O)(=O)Nc1cccc2ccncc12`
Outgoing: > 200 µM

Incoming: Cool, now `CCCCS(=O)(=O)Nc1cccc2cccnc12`
Outgoing: > 20 µM

Incoming: Cool, now `COc1ccccc1S(=O)(=O)Nc1cccc2cccnc12`
Outgoing: > 20 µM

Incoming: Cool, now `COc1cc(CCc2cc(NS(=O)(=O)c3ccccn3)c3ncccc3c2)cc(OC)c1`
Outgoing: 0.46 to 0.463 µM

Incoming: Cool, now `N#Cc1ccccc1S(=O)(=O)Nc1cccc2cccnc12`
Outgoing: > 20 µM

Continuing:
Incoming: Request - read-out IC50 | tested on Lactoylglutathione lyase (Homo sapiens, UniProt Q04760) | compound `CS(=O)(=O)Nc1ccc(-c2cncnc2)c2cccnc12`
Outgoing: > 20 µM

Incoming: Cool, now `Cn1cc(S(=O)(=O)Nc2cccc3cccnc23)cn1`
Outgoing: > 20 µM

Incoming: Cool, now `CS(=O)(=O)Nc1ccc(N2CCOCC2)c2cccnc12`
Outgoing: > 100 µM

Incoming: Cool, now `CS(=O)(=O)Nc1ccc(-c2ccncc2)c2cccnc12`
Outgoing: > 20 µM
